- target system: human CB2R (Homo sapiens, UniProt P34972)
- Construct: host or cells: CHO cells
- Sequence (P34972 whole entry): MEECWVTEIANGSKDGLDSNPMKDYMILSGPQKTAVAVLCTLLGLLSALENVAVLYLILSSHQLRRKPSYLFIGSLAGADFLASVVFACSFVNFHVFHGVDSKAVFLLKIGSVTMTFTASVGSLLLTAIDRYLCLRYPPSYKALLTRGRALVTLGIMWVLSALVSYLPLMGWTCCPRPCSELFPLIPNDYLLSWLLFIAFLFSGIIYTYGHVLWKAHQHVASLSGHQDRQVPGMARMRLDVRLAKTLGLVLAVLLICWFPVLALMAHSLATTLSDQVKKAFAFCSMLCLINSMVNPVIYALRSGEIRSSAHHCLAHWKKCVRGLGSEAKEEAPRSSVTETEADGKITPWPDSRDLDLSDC
- assay comment: CB2R mediated modulation of cAMP synthesis (forskolin-stimulated cAMP, CHO cells expressing human CB2R)
- Type: cell-based
Kindly state EC50 for each of the entries shown.
Output spec: scalar in nM, unitless text.

**Q:** Would you mind telling me what EC50 value was observed for CC(C)(C)c1cc(NC(=O)C2CN(C(=O)c3ccc(C(F)(F)F)cc3)CCO2)no1 (stereo not drawn) ?
**A:** 85

**Q:** Also need O=C(Nc1nc(-c2ccc(Cl)cc2)cs1)[C@@H]1CCCCN1C(=O)N1CCS(=O)(=O)CC1 , thanks.
**A:** 9.9

**Q:** Also need CO[C@H]1CC[C@@H](C(=O)N2CCCC[C@H]2C(=O)Nc2cc(C(C)(C)C)on2)CC1 , thanks.
**A:** 43

**Q:** Also need CC(C)(C)c1cc(NC(=O)[C@@H]2CCCCN2C(=O)C(F)(F)F)no1 , thanks.
**A:** 48

**Q:** Also need O=C(Nc1nc(-c2ccc(F)cc2)cs1)[C@@H]1CCCCN1C(=O)N1CCS(=O)(=O)CC1 , thanks.
**A:** 38

**Q:** Also need CC(C)(C)c1cc(NC(=O)[C@@H]2CCCCN2C(=O)C2CCCC2)no1 , thanks.
**A:** 14

**Q:** Also need O=C(Nc1ccc(F)c(C(F)(F)F)c1)[C@@H]1CCCCN1CC1CCOCC1 , thanks.
**A:** 26

**Q:** Also need CC(C)(C)c1cc(NC(=O)[C@@H]2CCCCN2c2ncc(C(F)(F)F)cc2Cl)no1 , thanks.
**A:** 0.18

**Q:** Also need CC(C)(C)c1cc(NC(=O)[C@H]2CCCN(C(=O)C3CCC(F)(F)CC3)C2)no1 , thanks.
**A:** 119
